system: TGFβ signal; assay: TGFβ signal inhibitory activity, (SBE)4-Luc reporter in A549 cells (Test Examples 1A and 1B); type: cell-based, human; conditions: Homo sapiens, A549; 3 µM; compounds of Reference Examples (Test Example 1B); read-out: TGFβ inhibition rate, %
Measured Quantity: inhibition at 3 µM (%)
Respond numerically; units are % and should not be typed.

Before answering, review these 3 worked examples.
COc1cc2c(Oc3cc(C)c(C)nc3-c3ccc(C)cn3)ccnc2cc1OCCNCCO	100
COc1cc2nccc(Oc3cc(C)c(C)cc3I)c2cc1OC	54
COc1cc2nccc(Oc3ccc(C)nc3-c3ccc(CO)cc3)c2cc1OC	80

Lookup: # query: inhibition at 3 µM of entry COc1cc2nccc(Oc3cc(C)c(C)nc3-c3cnccc3C)c2cc1OC
Found: 29

Lookup: Also, CCCOC(=O)c1cc2ccccc2cc1Oc1ccnc2cc(OCCCN3CCOCC3)c(OC)cc12 please.
Found: 83

Lookup: Also, COc1cc2nccc(Oc3ccc(C)nc3[N+](=O)[O-])c2cc1OC please.
Found: 45

Lookup: Also, COc1cc2c(Oc3cc4ccccc4nc3C)ccnc2cc1OC[C@@H](O)CO please.
Found: 100

---

tested on: TGFβ signal; test: TGFβ signal inhibitory activity, (SBE)4-Luc reporter in A549 cells (Test Examples 1A and 1B); assay type: cell-based, human; conditions: Homo sapiens, A549; 3 µM; compounds of Reference Examples (Test Example 1B); read-out: TGFβ inhibition rate, %
Measured Quantity: inhibition at 3 µM (%)
Respond numerically; units are % and should not be typed.

Before answering, review these 5 worked examples.
COc1cc2nccc(Oc3ccc(C)nc3-c3ccc(N(C)C)cc3)c2cc1OC	93
COc1cc2nccc(Oc3cc(C)c(C)cc3C(C)=NNc3ccccn3)c2cc1OC	47
COc1cc2c(Oc3cc4cnccc4nc3C)ccnc2cc1OCC(CO)CO	41
COc1cc2nccc(Oc3ccc(-n4ccnc4)cc3I)c2cc1OC	11
COc1cc2nccc(Oc3cc(C)c(C)nc3-c3nc(C)c(C)s3)c2cc1OC	96

Lookup: # query: inhibition at 3 µM of entry COc1cc2c(Oc3cc4cccnc4nc3C)ccnc2cc1OCCN1CCOCC1
Found: 97

Lookup: Also, COc1cc2c(Oc3cc4cccnc4nc3C)ccnc2cc1OCCCCO please.
Found: 92

Lookup: Also, COc1cc2nccc(Oc3ccc(C)nc3-c3ccccn3)c2cc1OC please.
Found: 100

Lookup: Also, COc1cc2nccc(Oc3ccc(C)nc3-c3cccc(C(N)=O)c3)c2cc1OC please.
Found: 98

Lookup: Also, COc1cc2nccc(Oc3ccc(C)nc3-c3cccc(F)c3)c2cc1OC please.
Found: 100

Lookup: Also, COc1cc2c(Oc3cc(C)c(C)nc3-c3cccnc3)ccnc2cc1O please.
Found: 61

Lookup: Also, COc1cc2nccc(Oc3cc(C)c(C)cc3-c3ccccn3)c2cc1OC please.
Found: 99

Lookup: Also, COc1cc2c(Oc3cc4ccccc4nc3C(C)=O)ccnc2cc1OCCN1CCOCC1 please.
Found: 99

Lookup: Also, COc1cc2c(Oc3cc(C)c(C)nc3-c3ccccc3)ccnc2cc1OCC1CO1 (stereo not drawn) please.
Found: 99

Lookup: Also, COc1cc2nccc(Oc3cc4ccccc4nc3-c3ccccn3)c2cc1OC please.
Found: 100

Lookup: Also, COc1cc2c(Oc3cc(C)c(C)nc3-c3cccc(C)n3)ccnc2cc1OCCNCCO please.
Found: 99

Lookup: Also, COc1cc2c(Oc3cc4ccccc4nc3C)ccnc2cc1NCCN1CCOCC1 please.
Found: 91

Lookup: Also, COc1cc2nccc(Oc3cncc(Cl)c3)c2cc1OC please.
Found: 18

---

system: TGFβ signal; assay: TGFβ signal inhibitory activity, (SBE)4-Luc reporter in A549 cells (Test Examples 1A and 1B); format: cell-based, human; details: Homo sapiens, A549; test compound 3 µM; TGFβ-1 2 ng/ml, 4 hr; Table 1A; read-out: TGFβ inhibition rate, %
Quick list: inhibition at 3 µM per entry.
Respond numerically; units are % and should not be typed.

CCc1ccc(Oc2ccnc3cc(OC)c(OC)cc23)c(-c2ccccn2)n1	100

Lookup: Query the reported inhibition at 3 µM for TGFβ signal; item: COc1cc2c(Oc3cc4cccnc4nc3-c3ccccc3)ccnc2cc1OCCO
Found: 100

Lookup: Also, Cc1cc(Oc2ccnc3cc(-c4ccncc4)ccc23)c(-c2ccccn2)nc1C please.
Found: 100

Lookup: Also, Cc1cc(Oc2ccnc3ccc(F)cc23)c(-c2ccccn2)nc1C please.
Found: 99

---

tested on: TGFβ signal; experiment: TGFβ signal inhibitory activity, (SBE)4-Luc reporter in A549 cells (Test Examples 1A and 1B); format: cell-based, human; settings: Homo sapiens, A549; 3 µM; compounds of Reference Examples (Test Example 1B); read-out: TGFβ inhibition rate, %
Quick list: inhibition at 3 µM per entry.
Respond numerically; units are % and should not be typed.

Before answering, review these 3 worked examples.
COc1cc2nccc(Oc3ccc4ncsc4c3-c3ccccc3)c2cc1OC	47
COc1ccc(Oc2ccnc3cc(OC)c(OC)cc23)c(C(O)Cc2ccccn2)c1 (stereo not drawn)	24
COc1cc2nccc(Oc3cc4ccccc4cc3O)c2cc1OC	72

Lookup: # query: inhibition at 3 µM of entry COc1cc2nccc(Oc3cnc4ncccc4c3)c2cc1OC
Found: 44

Lookup: Also, COc1cc2nccc(Oc3cc4ccccc4nc3I)c2cc1OC please.
Found: 96

Lookup: Also, COc1cc2nccc(Oc3ccc(C)nc3C(OC(C)=O)c3cccc(C)n3)c2cc1OC (stereo not drawn) please.
Found: 20

Lookup: Also, COc1cc2c(Oc3cc(C)c(C)nc3-c3ccccn3)ccnc2cc1OCCCO please.
Found: 99

Lookup: Also, COc1cc2nccc(Oc3cc(C)c(C)nc3-c3ccccc3)c2cc1OC please.
Found: 100

Lookup: Also, COc1cc2c(Oc3cc4ccccc4nc3C)ccnc2cc1OCC1CO1 (stereo not drawn) please.
Found: 97

---

system: TGFβ signal; assay: TGFβ signal inhibitory activity, (SBE)4-Luc reporter in A549 cells (Test Examples 1A and 1B); format: cell-based, human; conditions: Homo sapiens, A549; test compound 10 µM; Reference Examples, Table 1B; read-out: TGFβ inhibition rate, %
Quick list: inhibition at 10 µM per entry.
Respond numerically; units are % and should not be typed.

CCC(=O)c1ccc(OCc2ccccc2)cc1Oc1ccnc2cc(OC)c(OC)cc12	67

Lookup: # query: inhibition at 10 µM of entry COc1ccc(Oc2ccnc3cc(OC)c(OC)cc23)c(C(=O)NC2CCCCC2)c1
Found: 91

Lookup: Also, CCCOC(=O)c1cc(C(C)=O)ccc1Oc1ccnc2cc(OC)c(OC)cc12 please.
Found: 96

Lookup: Also, COc1cc2c(Oc3ccc(C)cc3C(=O)c3ccccc3)ccnc2cc1OCC(O)CN1CCC(N2CCCCC2)CC1 (centres unmarked) please.
Found: 100

Lookup: Also, COc1cc2ncnc(Oc3ccc(C)cc3C(=O)c3ccccc3)c2cc1OC please.
Found: 83

Lookup: Also, COc1cc2nccc(Oc3ccc(Br)cc3C(=O)c3ccccc3)c2cc1OC please.
Found: 100

Lookup: Also, COc1cc2nccc(Oc3ccccc3C(=O)Nc3ccccc3)c2cc1OC please.
Found: 58

Lookup: Also, COc1cc2nccc(Oc3c(C(C)=O)ccc4ccccc34)c2cc1OC please.
Found: 97

---

tested on: TGFβ signal; experiment: TGFβ signal inhibitory activity, (SBE)4-Luc reporter in A549 cells (Test Examples 1A and 1B); assay type: cell-based, human; conditions: Homo sapiens, A549; 3 µM; compounds of Reference Examples (Test Example 1B); read-out: TGFβ inhibition rate, %
Measured Quantity: inhibition at 3 µM (%)
Respond numerically; units are % and should not be typed.

COc1cc2nccc(Oc3ccc(C)nc3-c3cccc(C(C)=O)c3)c2cc1OC	66
COc1cc2c(Oc3cc(C)c(C)nc3-c3ccccn3)ccnc2cc1OCCCCO	99
COc1cc2nccc(Oc3cnc4ccccc4c3)c2cc1OC	45
COc1cc2nccc(Oc3cc(C)c(C)cc3C(C)=NN)c2cc1OC	74

Lookup: Query the reported inhibition at 3 µM for TGFβ signal; item: COc1cc2nccc(Oc3ccc(C)nc3Cc3cccc(C)n3)c2cc1OC
Found: 72

---

Quick list: inhibition at 3 µM per entry.
test system: TGFβ signal; experiment: TGFβ signal inhibitory activity, (SBE)4-Luc reporter in A549 cells (Test Examples 1A and 1B); format: cell-based, human; conditions: Homo sapiens, A549; 3 µM; compounds of Reference Examples (Test Example 1B); read-out: TGFβ inhibition rate, %
Respond numerically; units are % and should not be typed.

Before answering, review these 5 worked examples.
COc1cc2nccc(Oc3cc4cncnc4cc3C)c2cc1OC	28
COc1cc2c(Oc3cc4ccccc4nc3C)ccnc2cc1OCCN	100
COc1cc2c(Oc3cc(C)c(C)nc3-c3ccc(C)cn3)ccnc2cc1OCCCO	97
COc1cc2nccc(Oc3cc4ccccc4nc3C)c2cc1OCc1ccccc1	77
COc1cc2ncnc(Oc3cc(C)c(C)nc3-c3ccc(C)cn3)c2cc1OC	95

Lookup: # query: inhibition at 3 µM of entry COc1cc2nccc(Oc3ccc(C)nc3Cc3ccccc3)c2cc1OC
Found: 99

Lookup: Also, COc1cc2nccc(Oc3cc(C)c(C)nc3-c3ncccn3)c2cc1OC please.
Found: 97

Lookup: Also, COc1cc2nccc(Oc3cccnc3Br)c2cc1OC please.
Found: 19

Lookup: Also, CCOc1ccc(Oc2ccnc3cc(OC)c(OC)cc23)c(C(C)=O)c1 please.
Found: 66
